# EXPERIMENT_SUMMARY: Acute toxicity (LD50) in rats
# CONDITION_PARAMETERS: rat, in vivo, iv, female rat; 14 days of observation; with 5% confidence interval
PROPERTY: LD50 at 336 h (mg/kg)
Give bare numbers, in mg/kg.

-- ask For the molecule shown here, Cc1ccc(Nc2nccs2)c(O)c1.Cl , give the reported LD50 at 336 h.
-- reply 51

----------
# Test system: prostanoid pathways (thromboxane B2) in rabbit platelets
# EXPERIMENT_SUMMARY: Inhibition of the metabolism of [14C]arachidonate in rabbit platelets (disappearance of TXB2)
# Assay type: cell-based
# CONDITION_PARAMETERS: Oryctolagus cuniculus, Platelet; 50 μM
PROPERTY: inhibition at 50 µM (%)
Numbers only, in %.

Cc1ccc(Nc2nccs2)c(O)c1.Cl [Compound 3, hydrochloride] :: 100
Cc1ccc(O)c(Nc2nccs2)c1 [Compound 4] :: 68
Oc1cccnc1Nc1nccs1 [Compound 7] :: 36

Batch of 4 compounds: report inhibition at 50 µM for each.
1. CC(C)(C)c1ccc(Nc2nccs2)c(O)c1 [Compound 5]
2. Oc1ccc(Cl)cc1Nc1nccs1 [Compound 2]
3. Cc1cc(C)c(O)c(Nc2nccs2)c1 [Compound 6]
4. Oc1ccccc1Nc1nccs1 [Compound 1]

-- reply
76
100
70
34
